The reported measurements were obtained from the supplement of paper PMC11451515.

Test system: SEM cells
Assay: cell viability relative to DMSO control; higher = less cytotoxic
Settings: RPMI 5 mM glucose + 10% FBS; 48 h; 0.00702 µM
Readout type: cell viability (%)
# value in %; strip the unit string

Output reported cell viability of the molecule CC(C)C[C@H](NC(=O)[C@@H](O)[C@H](N)Cc1ccccc1)C(=O)O on SEM cells.
127

Output reported cell viability of the molecule CNC(=O)[C@H](CC/1=C/N=C\2/C=C\C\C=C12)NC(=O)[C@H](CC(C)C)CC(=O)NO on SEM cells.
122

Output reported cell viability of the molecule CC(C)(O)/C=C\C(=O)[C@](C)(O)[C@H]1[C@H](O)C[C@]2(C)[C@@H]3CC=C4[C@@H](C=C(O)C(=O)C4(C)C)[C@]3(C)C(=O)C[C@@]12C on SEM cells.
109

Output reported cell viability of the molecule N=C1N[C@H]2[C@H](CS[C@H]2CCCCC(=O)O)N1 on SEM cells.
108

Output reported cell viability of the molecule COc1cc(/C=C/C(=O)O)ccc1O on SEM cells.
62.1

Output reported cell viability of the molecule CO/N=C(/C(=O)N[C@@H]1C(=O)N2C(C(=O)O)=C(CSC(=O)c3ccco3)CS[C@H]12)c1csc(N)n1 on SEM cells.
89.6

Output reported cell viability of the molecule COc1ccc2cc1Oc1ccc(cc1)C[C@H]1c3cc(c(OC)cc3CCN1C)Oc1c(OC)c(OC)cc3c1[C@H](C2)N(C)CC3 on SEM cells.
115

Output reported cell viability of the molecule CNC(=O)Nc1ccc(-c2nc(N3CC4CCC(C3)O4)c3cnn(C4CCC5(CC4)OCCO5)c3n2)cc1 on SEM cells.
65.6
